Where do these numbers come from? They come from patent US5985603A.

assayedTarget: hP2X (Homo sapiens, UniProt P51575)
Construct: expressed in transfected cells; host or cells: Xenopus oocytes injected with in vitro transcribed RNA
Sequence (P51575 whole entry): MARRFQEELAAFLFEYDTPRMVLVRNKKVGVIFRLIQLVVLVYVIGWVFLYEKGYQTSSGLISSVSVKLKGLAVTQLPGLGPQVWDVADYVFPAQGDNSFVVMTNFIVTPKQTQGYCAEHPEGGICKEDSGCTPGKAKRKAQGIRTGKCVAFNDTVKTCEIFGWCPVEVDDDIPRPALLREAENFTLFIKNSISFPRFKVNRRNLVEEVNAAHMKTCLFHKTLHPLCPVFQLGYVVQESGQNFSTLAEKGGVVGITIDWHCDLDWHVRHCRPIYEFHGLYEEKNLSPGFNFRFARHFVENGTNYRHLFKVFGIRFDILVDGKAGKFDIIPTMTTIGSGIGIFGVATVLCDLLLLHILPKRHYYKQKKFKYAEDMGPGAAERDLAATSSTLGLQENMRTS
experimentalProtocol: inward currents evoked by purinoceptor agonists in Xenopus oocytes expressing hP2X
Format: cell-based
cond: relative to ATP, from EEC50
Structures can show the parent of a compound that is named as a salt.
resultType: relative potency
Kindly provide the number alone.

Bench note: what relative potency did Nc1ncnc2c1ncn2[C@@H]1O[C@H](COP(=O)(O)CP(=O)(O)OP(=O)(O)O)[C@@H](O)[C@H]1O [α,β-meATP, α,β-methylene ATP lithium salt] show?
0.23

Bench note: what relative potency did CSc1nc(N)c2ncn([C@@H]3O[C@H](COP(=O)(O)OP(=O)(O)OP(=O)(O)O)[C@@H](O)[C@H]3O)c2n1 [2MeSATP, 2-MethylthioATP tetra sodium salt] show?
1.36

Bench note: what relative potency did Nc1ncnc2c1ncn2[C@@H]1O[C@H](COP(=O)([O-])OP(=O)([O-])[O-])[C@@H](O)[C@H]1O.[Na+].[Na+].[Na+] [ADP, adenosine 5'-diphosphate sodium salt] show?
0.024

Bench note: what relative potency did Nc1ncnc2c1ncn2[C@@H]1O[C@H](COP(=O)(O)OP(=O)(O)CP(=O)(O)O)[C@@H](O)[C@H]1O [d,β,γ-meATP, β,γ-methylene-D-ATP sodium salt] show?
0.034

Bench note: what relative potency did Nc1nc(Cl)nc2c1ncn2[C@@H]1O[C@H](COP(=O)(O)OP(=O)(O)OP(=O)(O)O)[C@@H](O)[C@H]1O [2chloroATP, 2-chloro-ATP tetra sodium salt] show?
1.08

Bench note: what relative potency did Nc1ncnc2c1ncn2[C@@H]1O[C@H](COP(=O)(O)OP(=O)(O)OP(O)(O)=S)[C@@H](O)[C@H]1O [ATP-γ-S] show?
0.077

Bench note: what relative potency did Nc1ncnc2c1ncn2[C@@H]1O[C@H](COP(=O)(O)OP(=O)(O)OP(=O)(O)OP(=O)(O)OP(=O)(O)OC[C@H]2O[C@@H](n3cnc4c(N)ncnc43)[C@H](O)[C@@H]2O)[C@@H](O)[C@H]1O [AP5A, trilithium salt] show?
0.41
